B1: TRIM15 (parent)
chain: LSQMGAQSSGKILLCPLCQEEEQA

variants of: B1; test: protein stability index of a GFP-peptide fusion (GPS, HEK-293T) (PSI 1-6); higher = more stable; settings: c terminus: a fixed tail appended;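 further: lentivirally expressed fusions sorted by FACS into six bins by GFP to DsRed ratio, PSI derived from sequencing read proportions per bin multiplied by bin number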
Decision: protein stability index compared against 4; not below it gives Fulfilled, below it gives Not fulfilled.

Request: Check the entry E20C : does protein stability index equal or exceed 4?
Response: Not fulfilled

Request: Check the entry C15Y : does protein stability index equal or exceed 4?
Response: Fulfilled

Request: Check the entry E21C : does protein stability index equal or exceed 4?
Response: Not fulfilled

Request: Check the entry I12D : does protein stability index equal or exceed 4?
Response: Fulfilled

Request: Check the entry G5D : does protein stability index equal or exceed 4?
Response: Not fulfilled

Request: Check the entry I12Y : does protein stability index equal or exceed 4?
Response: Not fulfilled

Request: Check the entry C15K : does protein stability index equal or exceed 4?
Response: Fulfilled

Request: Check the entry L13T : does protein stability index equal or exceed 4?
Response: Fulfilled

Request: Check the entry A6G : does protein stability index equal or exceed 4?
Response: Not fulfilled

Request: Check the entry E21F : does protein stability index equal or exceed 4?
Response: Not fulfilled

Request: Check the entry Q3F : does protein stability index equal or exceed 4?
Response: Not fulfilled

Request: Check the entry K11R : does protein stability index equal or exceed 4?
Response: Not fulfilled

Request: Check the entry S8C : does protein stability index equal or exceed 4?
Response: Not fulfilled

Request: Check the entry M4N : does protein stability index equal or exceed 4?
Response: Not fulfilled

Request: Check the entry A24Q : does protein stability index equal or exceed 4?
Response: Fulfilled

Request: Check the entry E21Y : does protein stability index equal or exceed 4?
Response: Not fulfilled

Request: Check the entry L1Q : does protein stability index equal or exceed 4?
Response: Fulfilled

Request: Check the entry Q7H : does protein stability index equal or exceed 4?
Response: Fulfilled

Request: Check the entry Q7R : does protein stability index equal or exceed 4?
Response: Not fulfilled

Request: Check the entry E21H : does protein stability index equal or exceed 4?
Response: Not fulfilled

Request: Check the entry A6H : does protein stability index equal or exceed 4?
Response: Fulfilled

Request: Check the entry C15I : does protein stability index equal or exceed 4?
Response: Not fulfilled

Request: Check the entry A24D : does protein stability index equal or exceed 4?
Response: Fulfilled

Request: Check the entry Q23F : does protein stability index equal or exceed 4?
Response: Not fulfilled

Request: Check the entry L13Y : does protein stability index equal or exceed 4?
Response: Fulfilled

Request: Check the entry E20T : does protein stability index equal or exceed 4?
Response: Not fulfilled

Request: Check the entry S2D : does protein stability index equal or exceed 4?
Response: Fulfilled

Request: Check the entry S9N : does protein stability index equal or exceed 4?
Response: Not fulfilled

Request: Check the entry L14V : does protein stability index equal or exceed 4?
Response: Not fulfilled

Request: Check the entry L14A : does protein stability index equal or exceed 4?
Response: Fulfilled

Request: Check the entry Q23A : does protein stability index equal or exceed 4?
Response: Not fulfilled

Request: Check the entry L1D : does protein stability index equal or exceed 4?
Response: Fulfilled

Request: Check the entry A6T : does protein stability index equal or exceed 4?
Response: Not fulfilled

Request: Check the entry G10S : does protein stability index equal or exceed 4?
Response: Not fulfilled

Request: Check the entry Q3E : does protein stability index equal or exceed 4?
Response: Not fulfilled

Request: Check the entry C18V : does protein stability index equal or exceed 4?
Response: Fulfilled

Request: Check the entry A24W : does protein stability index equal or exceed 4?
Response: Not fulfilled

Request: Check the entry E20M : does protein stability index equal or exceed 4?
Response: Not fulfilled

Request: Check the entry I12A : does protein stability index equal or exceed 4?
Response: Fulfilled

Request: Check the entry K11G : does protein stability index equal or exceed 4?
Response: Not fulfilled

Request: Check the entry Q19Y : does protein stability index equal or exceed 4?
Response: Not fulfilled

Request: Check the entry L13D : does protein stability index equal or exceed 4?
Response: Fulfilled

Request: Check the entry C18S : does protein stability index equal or exceed 4?
Response: Fulfilled

The reported numbers originate from the supplement of paper PMC10567573.
